- Test system: HFF
- MEASUREMENT PROTOCOL: Antiviral activity against towne strain HCMV was determined by plaque reduction assay in duplicate wells using HFF cells
- Format: functional, cell-based
- TEST SETTINGS: Homo sapiens
ASSAY ENDPOINT: IC50 (µM)
Respond numerically; units are µM and should not be typed.

OC[C@H]1OC(n2c(NC3CC3)nc3cc4cc(Cl)c(Cl)cc4cc32)[C@H](O)[C@@H]1O (some centres undefined); 32
CC(C)Nc1nc2nc3cc(Cl)c(Cl)cc3nc2n1C1O[C@H](CO)[C@@H](O)[C@H]1O (some centres undefined); 32
OC[C@H]1OC(n2cnc3nc4cc(Cl)c(Cl)cc4nc32)[C@H](O)[C@@H]1O (some centres undefined); 32
OC[C@H]1OC(n2c(Cl)nc3cc4cc(Cl)c(Cl)cc4nc32)[C@H](O)[C@@H]1O (some centres undefined); 18

Here's the next entry for you.
Given the entry CC(C)Nc1nc2nc3cc(Cl)c(Cl)cc3cc2n1C1O[C@H](CO)[C@@H](O)[C@H]1O (some centres undefined) , report its measured IC50.
32

---

- Tested on: HFF
- MEASUREMENT PROTOCOL: Visual cytotoxicity against stationary human foreskin fibroblasts (HFF) cells at the time of HCMV plaque enumeration
- Assay type: functional, cell-based
pIC50 listing for selected molecules.
Hey, just a heads up that pIC50 is the negative log base 10 of the concentration in molar.

OC[C@H]1OC(n2c(NC3CC3)nc3cc4cc(Cl)c(Cl)cc4cc32)[C@H](O)[C@@H]1O (stereo not given in full); 4.49

I have this molecule here, CC(C)Nc1nc2nc3cc(Cl)c(Cl)cc3cc2n1C1O[C@H](CO)[C@@H](O)[C@H]1O (stereo not given in full) , and I need its recorded pIC50.
4.00

---

- System: HFF
- MEASUREMENT PROTOCOL: Antiviral activity against towne strain HCMV was determined by plaque reduction assay in duplicate wells using HFF cells
- Assay type: functional, cell-based
- TEST SETTINGS: Homo sapiens
pIC50: −log10 of the molar value.
ASSAY ENDPOINT: pIC50

Record excerpt, results attached:
OC[C@H]1OC(n2c(SCc3ccccc3)nc3cc4cc(Cl)c(Cl)cc4nc32)[C@H](O)[C@@H]1O (stereo partly drawn); < 5.00
OC[C@H]1OC(n2cnc3cc4cc(Cl)c(Cl)cc4cc32)[C@H](O)[C@@H]1O (stereo partly drawn); < 4.00

Okay, next one:
Item under review: OC[C@H]1OC(n2cnc3cc4cc(Cl)c(Cl)cc4nc32)[C@H](O)[C@@H]1O (stereo partly drawn) . Reported pIC50?
< 5.00

---

- Tested on: HFF
- MEASUREMENT PROTOCOL: Visual cytotoxicity against stationary human foreskin fibroblasts (HFF) cells at the time of HCMV plaque enumeration
- Assay type: functional, cell-based
ASSAY ENDPOINT: IC50

OC[C@H]1OC(n2c(SCc3ccccc3)nc3cc4cc(Cl)c(Cl)cc4cc32)[C@H](O)[C@@H]1O (stereo partly drawn); > 100 µM

# get_value(readout='IC50', item= Nc1nc2c(ncn2COC(CO)CO)c(=O)[nH]1 [GANCICLOVIR] )
> 100 µM

Query (molecule): OC[C@H]1OC(n2cnc3nc4cc(Cl)c(Cl)cc4cc32)[C@H](O)[C@@H]1O (stereo partly drawn) ; field requested: IC50
> 100 µM
